Experiment: Cytotoxicity against mouse RAW264.7 cells assessed as cell viability at 20 to 100 microM after 24 hrs by MTT assay
Format: cell-based
Conditions: dose 20-100 µM, read-out: Activity
measurement_type: viability at 24 h (%)

{"columns": ["compound", "measurement_type", "endpoint_value"],
 "data": [
  ["O=C([O-])CNP([O-])(=S)c1ccccc1.[Li+].[Li+] (stereo not drawn)", "viability at 24 h", 70],
  ["S=P1(c2ccccc2)NCCCO1 (stereo not drawn)", "viability at 24 h", 70],
  ["O=C([O-])[C@H](Cc1cc2ccccc2[nH]1)NP([O-])(=S)c1ccccc1.[Li+].[Li+] (stereo partly drawn)", "viability at 24 h", 70]
]}

Where these numbers come from: ChEMBL document CHEMBL4665656
